MEASURED ON: FLAG tagged human Ang2 (Alexis Biochemicals) (human) (UniProt O15123)
Sequence (O15123 19-496): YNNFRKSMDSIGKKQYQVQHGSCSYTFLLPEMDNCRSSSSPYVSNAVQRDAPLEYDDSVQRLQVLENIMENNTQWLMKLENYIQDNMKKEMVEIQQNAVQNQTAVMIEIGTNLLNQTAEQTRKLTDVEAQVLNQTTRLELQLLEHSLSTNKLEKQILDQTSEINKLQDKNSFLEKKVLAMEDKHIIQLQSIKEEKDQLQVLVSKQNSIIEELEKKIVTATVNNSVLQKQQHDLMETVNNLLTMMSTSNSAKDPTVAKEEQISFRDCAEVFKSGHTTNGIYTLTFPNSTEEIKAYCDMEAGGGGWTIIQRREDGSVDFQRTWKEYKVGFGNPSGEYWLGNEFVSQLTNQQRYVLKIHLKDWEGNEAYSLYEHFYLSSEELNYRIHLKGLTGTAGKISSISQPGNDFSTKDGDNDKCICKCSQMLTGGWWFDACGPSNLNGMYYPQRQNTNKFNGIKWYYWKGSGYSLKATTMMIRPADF
ASSAY PROCEDURE: competition ELISA, FLAG-hAng2 (0.02 nM) on coated hTie2/Fc
OUTCOME MEASURE: pIC50
Give bare numbers, as −log10 of the molar value.

Example cases with answers are listed next.
# BINDER, pIC50
records = [
    ("VHH 8A11 (VHH, not shown: small tags and cut ends) VHH: EVQLVESGGGLVQAGGSLRLSCAASGRTFSSYAMGWFRQAPGKELEFVTAVSWSGGSTYYADSVKGRFTISRDSAKNTVYLQMNSLKPEDTAVYYCAAQSTIVEVTTLEAYDYWGQGTQVTVSS", 7.52),
    ("VHH 13A02 (VHH, not shown: small tags and cut ends) VHH: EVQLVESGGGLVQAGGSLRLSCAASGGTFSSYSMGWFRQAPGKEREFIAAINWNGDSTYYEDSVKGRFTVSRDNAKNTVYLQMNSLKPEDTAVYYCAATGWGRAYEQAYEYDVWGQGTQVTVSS", 8.39),
    ("VHH 24B05 (VHH, not shown: small tags and cut ends) VHH: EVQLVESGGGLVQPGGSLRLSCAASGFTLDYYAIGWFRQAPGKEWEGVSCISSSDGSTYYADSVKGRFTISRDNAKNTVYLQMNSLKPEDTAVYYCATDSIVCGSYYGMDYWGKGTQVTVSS", 9.00),
]

Now consider the entry below.
Qu. Which pIC50 is reported for this binder? VHH 3F02 (VHH, not shown: small tags and cut ends) VHH: EVQLVESGGGLVQVGDSLRLACAASGRTFSTYLMVGWFRQAPGKEREFAAGIWSSGDTAYADSVKGRFTISRDNAKNTVYLQMNSLKTEDTAVYYCAGSYDGNYYIPGFYKDWGQGTQVTVSS
Ans. 8.04

Values were extracted from patent US20230203146A1.
